- Experiment Description: Phase 1 single ascending dose (SAD) pharmacokinetics, fasted
- Format: in vivo, human
- Reported Conditions: male, human, plasma; single oral 8 mg/kg, fasted; geometric mean (%CV)
Quantity Kind: AUC(0-t) (ng·h/mL)

INSERT INTO assay_data (mol_smiles, unit, recorded_number) VALUES
  ('C[C@@H]1C[C@H]2[C@@H]3CCC4=CC(=O)C=C[C@]4(C)C3=CC[C@]2(C)[C@@]1(O)C(=O)CO', 'ng·h/mL', 4000);

====

- Experiment Description: Clinical safety (treatment-emergent adverse events, MTD, NOAEL), MAD
- Assay type: in vivo
- Reported Conditions: human, in vivo, oral; highest dose tested, 14 days
Quantity Kind: NOAEL at 14 days (mg/kg/day)

INSERT INTO measurements (mol_smiles, recorded_number) VALUES
  ('C[C@@H]1C[C@H]2[C@@H]3CCC4=CC(=O)C=C[C@]4(C)C3=CC[C@]2(C)[C@@]1(O)C(=O)CO', 20);

Origin of the recorded values: paper PMC6136660
